The origin of these recorded values is patent US20230265116A1.

Reported DTC Dmax (%) by item:
Test system: EGFR Del19/T790M/C797S (BaF3-DTC cells)
experiment_summary: EGFR degradation HTRF assay, BaF3-DTC cells
Format: cell-based
assay_context: 16h treatment, maximum percentage of degradation

- compound: "CCc1cc(Nc2ncc(Br)c(Nc3ccc4nccnc4c3P(C)(C)=O)n2)c(OC)cc1N1CCC(N2CCN(C(=O)[C@H]3C[C@H](N(C)c4ccc5c(c4)C(=O)N(C4CCC(=O)NC4=O)C5=O)C3)CC2)CC1 (stereo partly shown)"
  study_system: "EGFR Del19/T790M/C797S (BaF3-DTC cells)"
  DTC Dmax (%): 90.89
- compound: "CCc1cc(Nc2ncc(Br)c(Nc3ccc4nc(C)ccc4c3P(C)(C)=O)n2)c(OC)cc1N1CCC(N2CCN(C(=O)C(C)(C)CNc3cc(F)c(C4CCC(=O)NC4=O)c(F)c3)CC2)CC1 (stereo not shown)"
  study_system: "EGFR Del19/T790M/C797S (BaF3-DTC cells)"
  DTC Dmax (%): 88.51
- compound: "CCc1cc(Nc2ncc(Br)c(Nc3ccc4nccnc4c3P(C)(C)=O)n2)c(OC)cc1N1CCC(N2CCN(CCCc3cc(F)c(C4CCC(=O)NC4=O)c(F)c3)CC2)CC1 (stereo not shown)"
  study_system: "EGFR Del19/T790M/C797S (BaF3-DTC cells)"
  DTC Dmax (%): 90.39
- compound: "CCc1cc(Nc2ncc(Br)c(Nc3ccc4c(=O)n(C)ncc4c3P(C)(C)=O)n2)c(OC)cc1N1CCC(N2CCN(CCC3CCN(c4cc(F)c(C5CCC(=O)NC5=O)c(F)c4)CC3)CC2)CC1 (stereo not shown)"
  study_system: "EGFR Del19/T790M/C797S (BaF3-DTC cells)"
  DTC Dmax (%): 91.36
